assay: Tmax is the time of maximum concentration in dog at 10 mg/kg oral dose; type: ADME, organism-based, Canis lupus familiaris; set-up: dose 10 mg/kg, route oral; details: in vivo
EXPERIMENTAL READOUT: Tmax (h)
Quick note: give the figure in h, leave out the unit.

q: Read the entry CC(C)C(NC(=O)Cn1c(-c2ccc(F)cc2)ncc(N)c1=O)C(=O)C(F)(F)F (stereo unspecified) and write its reported Tmax.
a: 1

* * *

assay: Tmax is the time of maximum concentration in hamster at 10 mg/kg oral dose; format: ADME, organism-based; parameters: dose 10 mg/kg, route oral; conditions: cricetinae, in vivo
EXPERIMENTAL READOUT: Tmax

q: Read the entry CC(C)C(NC(=O)Cn1c(-c2ccc(F)cc2)ncc(N)c1=O)C(=O)C(F)(F)F (stereo unspecified) and write its reported Tmax.
a: 15 min
